Each item that follows carries a reported Growth Rate.
System: Fibroblast
MEASUREMENT_NOTES: Incucyte cell viability with human fibroblast; also: unitless GR value; below 1 slowed growth and below 0 cell loss
Format: toxicity, cell-based
APPLIED_CONDITIONS: 12 h, 10 µM, compound concentration 10 uM, replicate number 2, timepoint 12 hours
Where a SMILES comes first, the peptide text is derived from it. Bridges are numbered along the chain shown (N, C = ends). [ ]: non-standard residue; d: D form. Orn = NCCC[C@H](N)C(=O)O; Mpa = O=C(O)CCS
// return a plain number; no unit text

# COMPOUND, MEAS_VALUE
rows = [
    ("CCOc1ccc(C[C@H]2NC(=O)CCSSC[C@@H](C(=O)N3CCC[C@H]3C(=O)N[C@@H](CCCN)C(=O)NCC(N)=O)NC(=O)[C@H](CC(N)=O)NC(=O)[C@H]([C@@H](C)O)NC(=O)[C@H]([C@@H](C)CC)NC2=O)cc1 [ATOSIBAN] ([Mpa][dY](Et)ITNCP[Orn]G-NH2; disulfide 1-6)", 0.4),
]

What Growth Rate value was documented for this compound, CCCCCCCCCCCCCCC[C@@H](O)[C@@H](N)COP(=O)(O)O ? 0.66

Now try CC(C)CC(=O)Nc1cncc(-c2ccc3[nH]nc(-c4nc5c(-c6cccc(F)c6)cncc5[nH]4)c3c2)c1 . -0.03

Now try Cc1nc[nH]c1CCN.Cl . 0.83

Now try CC[S+]([O-])c1nc(-c2cccc(OCc3ccccc3)c2)cc(C(F)(F)F)n1 (stereo unspecified) . -0.52

Now try O=C1NC(=Nc2c(Cl)cccc2Cl)S/C1=C\c1ccc2nccnc2c1 . 0.32

* * *

System: HEK-293T
MEASUREMENT_NOTES: Incucyte cell viability with HEK293T; also: unitless GR value; below 1 slowed growth and below 0 cell loss
Assay type: toxicity, cell-based
APPLIED_CONDITIONS: human, 0 h, 10 µM, compound concentration 10 uM, replicate number 2, timepoint 0 hours
Respond with 1 for Growth Rate values of 0.5 and above, 0 for values below.

These recorded examples may help you get a feel for the data.
# MOLECULE, GROUP
data = [
    ("CCCCNNC(=O)c1ccc(Br)cc1", 1),
    ("O=C1NC(=Nc2c(Cl)cccc2Cl)S/C1=C\\c1ccc2nccnc2c1", 0),
]

# check: Growth Rate of CN(C)c1ccnc2sc3c(=O)n(N4CCCCCC4)cnc3c12 is greater than or equal to 0.5 0

Now try CCCCC[C@H](O)/C=C/[C@H]1[C@H](O)CC(=O)[C@@H]1CCCCCCC(=O)O [ALPROSTADIL] . 0

Now try CC(C)(O)C(=O)N1CCN(c2ccc(C(F)(F)F)c(C3=C(c4c[nH]c5ccccc45)C(=O)NC3=O)c2)CC1 . 0

Now try O=C(Nc1cc(-c2ccccc2)nn1-c1ccccc1F)c1ccc([N+](=O)[O-])cc1 . 0

Now try CCCCOCCOc1nc(-c2ccc(C(=O)O)c(F)c2)sc1C . 0

Now try C(#Cc1cccc(CN2CCOCC2)c1)CCN1CCCCC1 . 1

Now try CC[C@@H](C)Nc1nc(C)nc2c(-c3ccc(OC)nc3C)c(C)nn12 [PEXACERFONT] . 1

Now try Nc1ncnc2c1ncn2[C@@H]1O[C@H](CO)[C@@H](O)[C@H]1O [ADENOSINE] . 0

Now try O=C(O)CCCCCC[C@H]1C(=O)NC(=O)N1CCC(O)C1CCCCC1 (some centres not stated) . 0

Now try NC(=O)c1ccc(CNC(=O)NC[C@H]2CN(Cc3ccc(Cl)c(Cl)c3)CCO2)cc1 . 1

* * *

System: Fibroblast
MEASUREMENT_NOTES: Incucyte cell viability with human fibroblast; also: unitless GR value; below 1 slowed growth and below 0 cell loss
Type: toxicity, cell-based
APPLIED_CONDITIONS: 24 h, 10 µM, compound concentration 10 uM, replicate number 2, timepoint 24 hours
Each item that follows carries a reported Growth Rate.
// return a plain number; no unit text

# MOLECULE, MEAS_VALUE
measured = [
    ("CCc1cc2c(cc1-c1cccc(S(=O)(=O)F)c1)C(C)(C)c1[nH]c3cc(C#N)ccc3c1C2=O", 0.58),
    ("CN(CCN1CCC(OC(=O)Nc2ccccc2-c2ccccc2)CC1)C(=O)c1ccc(CN2CCC(C(N)=O)CC2)cc1", 0.97),
    ("Cc1sc2c(c1C)C(c1ccc(Cl)cc1)=N[C@@H](CC(=O)NCCCCCCCCNC(=O)COc1cccc3c1C(=O)N(C1CCC(=O)NC1=O)C3=O)c1nnc(C)n1-2 (some centres not stated)", -0.03),
    ("O=c1ccc2ccc(OCCCCN3CCN(c4cccc5sccc45)CC3)cc2[nH]1", 0.76),
]

What Growth Rate value was documented for this molecule, CN[C@@H]1C[C@H]2O[C@@](C)([C@@H]1OC)n1c3ccccc3c3c4c(c5c6ccccc6n2c5c31)C(=O)NC4 ? 0.35

Now try NC(=O)c1cc2c(-c3ccc(C(=O)NCc4ccnc(Cl)c4)s3)cccc2s1 . 0.32

Now try COc1ccc(S(=O)(=O)N2C(=O)[C@@](c3ccccc3OC)(N3C[C@H](O)C[C@H]3C(=O)N(C)C)c3cc(Cl)ccc32)c(OC)c1 . 0.6

* * *

System: Fibroblast
MEASUREMENT_NOTES: Incucyte cell viability with human fibroblast; also: unitless GR value; below 1 slowed growth and below 0 cell loss
Assay type: toxicity, cell-based
APPLIED_CONDITIONS: 0 h, 10 µM, compound concentration 10 uM, replicate number 1, timepoint 0 hours
METRIC_NAME: Growth Rate
// return a plain number; no unit text

# COMPOUND, Growth Rate
records = [
    ("NC[C@H](O)c1ccc(O)c(O)c1.O.O=C(O)C(O)C(O)C(=O)O", 0.92),
    ("Cc1cc(C)cc([C@H]2c3cc(C)ccc3NC(=O)CN2C(=O)c2ccc(Br)s2)c1", 0.07),
    ("O=C(O)CCCCCC[C@H]1C(=O)NC(=O)N1CCC(O)C1CCCCC1 (stereo partly drawn)", 0.25),
    ("CCCN1CCC[C@@H]2Cc3n[nH]cc3C[C@H]21.Cl [QUINPIROLE HYDROCHLORIDE]", -0.18),
    ("COC[C@@H](CC(C)C)NC1=N/C(=C\\c2ccc3ncsc3c2)C(=O)N1C", 0.25),
    ("CCC(C)n1ncn(-c2ccc(N3CCN(c4ccc(OC[C@@H]5CO[C@@](Cn6cncn6)(c6ccc(Cl)cc6Cl)O5)cc4)CC3)cc2)c1=O.CCC(C)n1ncn(-c2ccc(N3CCN(c4ccc(OC[C@H]5CO[C@](Cn6cncn6)(c6ccc(Cl)cc6Cl)O5)cc4)CC3)cc2)c1=O (stereo partly drawn)", 0.6),
    ("CN(C)CCCc1cc(C(=O)Nc2ccc(-c3ccncc3)cc2)ccc1O.Cl.Cl", 0.85),
]

Pending compound:
What Growth Rate value was documented for this compound, CN(C)C(=O)Cn1cc(-c2ccc(-c3nnc4ccccn34)cc2)cn1 ? 0.68

* * *

System: Fibroblast
MEASUREMENT_NOTES: Incucyte cell viability with human fibroblast; also: unitless GR value; below 1 slowed growth and below 0 cell loss
Assay type: toxicity, cell-based
APPLIED_CONDITIONS: 0 h, 10 µM, compound concentration 10 uM, replicate number 1, timepoint 0 hours
METRIC_NAME: Growth Rate
// return a plain number; no unit text

# COMPOUND, MEASURED_TARGET, MEAS_VALUE
rows = [
    ("Br.Oc1cc2c(cc1O)C(c1ccccc1)CNCC2 (centres undefined)", "Fibroblast", 0.09),
]

Which Growth Rate is reported with Fibroblast for this entry: C[C@H](N)COC(=O)[C@@H](CCCCN)NC(=O)Cc1c(-c2ccc3ccccc3c2)[nH]c2c1ccc1ccccc12 ? 0.29

Now try OCCCNc1cc(-c2ccnc(Nc3cccc(Cl)c3)n2)ccn1 . -0.42

Now try C[C@@H]1CN(Cc2ccc(F)cc2)CCN1C(=O)COc1ccc(Cl)cc1NC(N)=O [BX 471 FREE BASE] . 0.82

Now try CCc1nc2c(C)cc(C)nc2[nH]1 . 0.65

Now try Cl.N=C(N)NC(=O)Cc1c(Cl)cccc1Cl [GUANFACINE HYDROCHLORIDE] . 0.58

Now try N#Cc1c(Oc2cccc(OS(=O)(=O)CCCC(F)(F)F)c2)cccc1C(F)(F)F . 0.09

Now try CSc1ccccc1N1CCN(CCCCCC(=O)NC2CCCc3ccccc32)CC1.Cl (centres undefined) . 0.06

Now try COc1ncc2cc(C(=O)Nc3cc(C(=O)NCc4cccc(Cl)c4)ccc3Cl)c(=O)[nH]c2n1 . 0.34

Now try COc1cc2nc(N(C)CCCNC(=O)C3CCCO3)nc(N)c2cc1OC.Cl (centres undefined) [ALFUZOSIN HYDROCHLORIDE] . 0.72

* * *

Tested on: HEK-293T
MEASUREMENT_NOTES: Incucyte cell viability with HEK293T; also: unitless GR value; below 1 slowed growth and below 0 cell loss
Type: toxicity, cell-based
APPLIED_CONDITIONS: human, 12 h, 10 µM, compound concentration 10 uM, replicate number 1, timepoint 12 hours
METRIC_NAME: Growth Rate
// return a plain number; no unit text

# MOLECULE, Growth Rate
records = [
    ("CC(C)c1noc(N2CCC(COc3ccc(-c4ccc(S(C)(=O)=O)cc4)nc3)CC2)n1 [GSK-1292263]", 0.09),
]

What Growth Rate value was documented for this molecule, C[C@H]1[C@H](OC(=O)CCC(=O)O)O[C@@H]2O[C@@]3(C)CC[C@H]4[C@H](C)CC[C@@H]1[C@@]24OO3 [ARTESUNATE] ? -0.23

Now try CC(C)n1cc(-c2ccc(N3CCN(C)CC3)c(NC(=O)c3ccc(-c4ccncc4)o3)c2)cn1 . -0.21

Now try COc1ncc2cc(C(=O)Nc3cc(C(=O)NCc4cccc(Cl)c4)ccc3Cl)c(=O)[nH]c2n1 . 0.55
